B1: CRYL1 (parent)
chain: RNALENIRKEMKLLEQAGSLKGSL

Variants of: B1
assay_summary: protein stability index of a GFP-peptide fusion (GPS, HEK-293T) (PSI 1-6); higher = more stable;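 also: lentivirally expressed fusions sorted by FACS into six bins by GFP to DsRed ratio, PSI derived from sequencing read proportions per bin multiplied by bin number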
condition_label: c terminus: a fixed tail appended
Binary classification by protein stability index, with 3 as an inclusive lower bound for yes; all other cases are no.

Q16P yes

// query Is protein stability index at least 3? Consider E10I
// result no

// query Reported protein stability index at or above 3? G22R
// result yes

// query Kindly determine if protein stability index recorded for A17S is above or exactly 3.
// result yes

// query Does G22P have a reported protein stability index of at least 3?
// result yes

// query Please indicate if the recorded protein stability index for E5I meets or exceeds 3.
// result yes
